assayed.target: Diacylglycerol lipase-alpha (Homo sapiens)
Sequence (whole entry): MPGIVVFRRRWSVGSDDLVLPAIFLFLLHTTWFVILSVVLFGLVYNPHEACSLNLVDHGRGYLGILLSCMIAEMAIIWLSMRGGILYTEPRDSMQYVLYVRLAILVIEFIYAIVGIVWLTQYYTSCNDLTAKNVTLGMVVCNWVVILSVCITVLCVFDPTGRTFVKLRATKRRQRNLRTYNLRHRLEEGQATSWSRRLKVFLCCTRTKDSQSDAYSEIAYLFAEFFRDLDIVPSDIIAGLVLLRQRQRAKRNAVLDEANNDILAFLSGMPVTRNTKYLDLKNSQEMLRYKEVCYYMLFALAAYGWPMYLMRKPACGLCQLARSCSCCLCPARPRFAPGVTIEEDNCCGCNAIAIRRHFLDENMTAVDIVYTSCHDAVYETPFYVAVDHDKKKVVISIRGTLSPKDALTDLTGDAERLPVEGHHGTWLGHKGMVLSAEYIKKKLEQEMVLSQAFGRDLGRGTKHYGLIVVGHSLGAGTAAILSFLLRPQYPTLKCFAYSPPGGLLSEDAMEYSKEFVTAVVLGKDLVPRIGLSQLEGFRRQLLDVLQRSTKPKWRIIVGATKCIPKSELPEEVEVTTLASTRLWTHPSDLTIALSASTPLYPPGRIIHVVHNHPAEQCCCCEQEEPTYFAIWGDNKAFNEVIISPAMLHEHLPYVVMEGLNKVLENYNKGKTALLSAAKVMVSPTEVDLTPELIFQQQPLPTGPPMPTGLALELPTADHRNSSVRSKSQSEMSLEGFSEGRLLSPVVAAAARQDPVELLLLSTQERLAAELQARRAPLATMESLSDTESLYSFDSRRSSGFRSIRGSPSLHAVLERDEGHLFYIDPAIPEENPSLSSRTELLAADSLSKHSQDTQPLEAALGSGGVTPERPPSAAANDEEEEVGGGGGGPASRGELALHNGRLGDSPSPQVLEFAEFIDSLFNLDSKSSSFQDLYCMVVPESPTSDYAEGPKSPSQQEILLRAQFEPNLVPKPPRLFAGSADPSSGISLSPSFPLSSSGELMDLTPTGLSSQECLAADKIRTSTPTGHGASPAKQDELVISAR
assay.summary: Inhibition of human DAGLalpha expressed in HEK293T cell membrane using [14C]SAG substrate at 10 uM in presence of 0.05% Triton X-100 by […]
Format: cell-based
experimental.context: HEK-293T
measured.quantity: inhibition
Write the figure, then the unit, nothing else.

# compound, assay.value
data = [
    ("CCCCCCCCCCCCCC1CC(=O)O1 (racemic)", "72%"),
]

(Q) Would you kindly share the measured inhibition for CCCCCCCCCCC[C@@H](C[C@@H]1OC(=O)[C@H]1CCCCCC)OC(=O)[C@H](NC=O)[C@H](C)CC ?
(A) 98%

(Q) Would you kindly share the measured inhibition for CCCCCCCCCCC[C@@H](C[C@@H]1OC(=O)[C@H]1CCCCCC)OC(=O)[C@@H](NC=O)[C@H](C)CC ?
(A) 99%

(Q) Would you kindly share the measured inhibition for CCCCCCCCCCC[C@@H](C[C@@H]1OC(=O)[C@H]1CCCCCC)OC(=O)[C@@H](NC=O)[C@@H](C)CC ?
(A) 99%

(Q) Would you kindly share the measured inhibition for CCCCCCCCCCC[C@@H](C[C@@H]1OC(=O)[C@H]1CCCCCC)OC(=O)[C@H](NC=O)[C@@H](C)CC ?
(A) 98%

(Q) Would you kindly share the measured inhibition for CCCCCCCCCCC[C@@H](C[C@@H]1OC(=O)[C@H]1CCCCCC)OC(=O)[C@H](CC)NC=O ?
(A) 100%

----------
assayed.target: Fatty-acid amide hydrolase 1 (Rattus norvegicus) (UniProt P97612)
Sequence (whole entry): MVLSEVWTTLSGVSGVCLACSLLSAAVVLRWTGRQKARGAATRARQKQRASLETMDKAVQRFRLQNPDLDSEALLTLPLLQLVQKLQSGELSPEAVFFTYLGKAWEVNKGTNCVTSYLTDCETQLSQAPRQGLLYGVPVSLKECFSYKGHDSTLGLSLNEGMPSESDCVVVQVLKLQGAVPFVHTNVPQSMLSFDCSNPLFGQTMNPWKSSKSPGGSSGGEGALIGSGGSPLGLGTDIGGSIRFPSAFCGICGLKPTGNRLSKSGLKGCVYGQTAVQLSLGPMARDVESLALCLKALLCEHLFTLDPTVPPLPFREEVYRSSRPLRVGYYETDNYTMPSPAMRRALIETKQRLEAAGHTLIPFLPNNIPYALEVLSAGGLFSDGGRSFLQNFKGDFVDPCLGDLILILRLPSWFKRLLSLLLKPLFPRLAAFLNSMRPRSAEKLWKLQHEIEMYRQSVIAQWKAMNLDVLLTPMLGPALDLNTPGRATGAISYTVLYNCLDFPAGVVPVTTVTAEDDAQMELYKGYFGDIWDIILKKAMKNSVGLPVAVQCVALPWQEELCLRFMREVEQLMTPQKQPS
assay.summary: Inhibition of rat histidine tagged FAAH expressed in Escherichia coli at 10 uM by coumarin ester substrate fluorescence assay
The source made the active and inactive calls. The calls are words filed in the database; no cut-off is given here.
measured.quantity: inhibition

# compound, measured.quantity, assay.value
data = [
    ("CCCCCCCC(=O)NCC(COC)OC(=O)CCCCCCC (racemic)", "inhibition", "inactive"),
    ("CCCCCCC[C@@H]1OC(=O)[C@H]1CCCCCC (racemic)", "inhibition", "79%"),
    ("CCCCCCCCCCC[C@@H](C[C@@H]1OC(=O)[C@H]1CCCCCC)OC(=O)[C@@H](NC=O)[C@@H](C)CC", "inhibition", "7%"),
    ("CCCCCCCCOC(=O)NCC(COC)OC(=O)CCCCCCC (racemic)", "inhibition", "inactive"),
    ("CCCCCCCC(=O)OC(CNC(=O)ON=C1CCCCC1)COC (racemic)", "inhibition", "inactive"),
]

(Q) Would you kindly share the measured inhibition for CCCCCCCC/C=C\CCCCCCCC(=O)OC(CNC(=O)OCCCCCCCC)COC (racemic) ?
(A) inactive

(Q) Would you kindly share the measured inhibition for CCCCCCCCNC(=O)OCC(COC)OC(=O)NCCCCCCCC (racemic) ?
(A) inactive

----------
Parameter inhibition: see the listing below.
Species on record: Sus scrofa
assay.summary: Inhibition of porcine pancreatic lipase type 2 at 10 uM by FRET assay
The figure you give is taken to be in %; do not add the unit.

// solved cases for inhibition follow
# compound, measured.quantity, assay.value
records = [
    ("O=C(Oc1ccc([N+](=O)[O-])cc1)N1CCN(Cc2cccc(Oc3ccccc3)c2)CC1", "inhibition", 43),
    ("O=C(Oc1ccc([N+](=O)[O-])cc1)N1CCC(C(O)(c2ccc3c(c2)OCO3)c2ccc3c(c2)OCO3)CC1", "inhibition", 36),
    ("O=C(NCCCCCCNC(=O)ON=C1CCCCC1)ON=C1CCCCC1", "inhibition", 78),
    ("CCCCCCCCCCC[C@@H](C[C@@H]1OC(=O)[C@H]1CCCCCC)OC(=O)[C@H](CC)NC=O", "inhibition", 97),
]

(Q) Would you kindly share the measured inhibition for CCCCCCCCCCC[C@@H](C[C@@H]1OC(=O)[C@H]1CCCCCC)OC(=O)[C@H](NC=O)[C@@H](C)CC ?
(A) 95

(Q) Would you kindly share the measured inhibition for CCCCCCCCCCC[C@@H](C[C@@H]1OC(=O)[C@H]1CCCCCC)OC(=O)[C@H](CC(C)C)NC=O ?
(A) 98

(Q) Would you kindly share the measured inhibition for CCCCCCCCCCCCCC1CC(=O)O1 (racemic) ?
(A) 38

(Q) Would you kindly share the measured inhibition for CCCCCCCCCCC[C@@H](C[C@@H]1OC(=O)[C@H]1CCCCCC)OC(=O)[C@H](NC=O)[C@H](C)CC ?
(A) 99

----------
assayed.target: Diacylglycerol lipase-alpha (Homo sapiens) (UniProt Q9Y4D2)
Sequence (whole entry): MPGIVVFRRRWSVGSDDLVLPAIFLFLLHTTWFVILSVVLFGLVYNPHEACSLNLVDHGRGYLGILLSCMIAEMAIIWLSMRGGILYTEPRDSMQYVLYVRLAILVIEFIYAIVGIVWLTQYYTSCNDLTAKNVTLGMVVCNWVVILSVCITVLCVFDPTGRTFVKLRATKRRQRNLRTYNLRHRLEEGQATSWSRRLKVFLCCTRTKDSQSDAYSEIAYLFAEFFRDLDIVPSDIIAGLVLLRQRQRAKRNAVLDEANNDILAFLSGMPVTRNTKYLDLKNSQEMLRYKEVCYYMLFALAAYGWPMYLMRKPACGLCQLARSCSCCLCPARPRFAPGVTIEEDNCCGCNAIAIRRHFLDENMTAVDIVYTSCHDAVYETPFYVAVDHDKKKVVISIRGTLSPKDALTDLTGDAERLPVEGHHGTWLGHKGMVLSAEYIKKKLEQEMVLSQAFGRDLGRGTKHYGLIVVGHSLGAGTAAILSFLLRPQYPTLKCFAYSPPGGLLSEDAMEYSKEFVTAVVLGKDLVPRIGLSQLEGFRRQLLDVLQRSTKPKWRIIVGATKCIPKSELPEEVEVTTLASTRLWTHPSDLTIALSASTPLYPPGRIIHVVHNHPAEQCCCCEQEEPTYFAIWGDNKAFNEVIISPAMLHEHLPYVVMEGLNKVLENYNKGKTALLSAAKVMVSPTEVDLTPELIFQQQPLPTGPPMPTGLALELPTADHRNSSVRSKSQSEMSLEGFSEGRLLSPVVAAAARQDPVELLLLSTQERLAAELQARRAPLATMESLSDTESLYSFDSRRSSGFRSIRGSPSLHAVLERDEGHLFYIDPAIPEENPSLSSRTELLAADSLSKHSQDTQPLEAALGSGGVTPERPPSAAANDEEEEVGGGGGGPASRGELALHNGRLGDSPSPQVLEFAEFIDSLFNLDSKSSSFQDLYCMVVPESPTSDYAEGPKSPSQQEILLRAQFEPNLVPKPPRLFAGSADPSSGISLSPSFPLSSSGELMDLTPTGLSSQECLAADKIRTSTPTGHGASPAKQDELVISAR
assay.summary: Inhibition of human DAGLalpha expressed in HEK293T cell membrane using [14C]SAG substrate at 10 uM using JZL184 pretreated protein in detergent free solution by […]
Type: cell-based
experimental.context: HEK-293T
Parameter inhibition: see the listing below.
The figure you give is taken to be in %; do not add the unit.

// solved cases for inhibition follow
# compound, measure.unit, inhibition
data = [
    ("O=C(Oc1ccc([N+](=O)[O-])cc1)N1CCC(C(O)(c2ccc3c(c2)OCO3)c2ccc3c(c2)OCO3)CC1", "%", 44),
    ("O=C(N[C@H]1COC1=O)OCc1ccccc1", "%", 7),
    ("CCCCCCC[C@H]1OC(=O)[C@H]1CCCCCC (racemic)", "%", 65),
]

(Q) Would you kindly share the measured inhibition for CCCCCCC[C@@H]1OC(=O)[C@H]1CCCCCC (racemic) ?
(A) 69

(Q) Would you kindly share the measured inhibition for O=C(NCCCCCCNC(=O)ON=C1CCCCC1)ON=C1CCCCC1 ?
(A) 40

(Q) Would you kindly share the measured inhibition for O=C(Oc1ccc([N+](=O)[O-])cc1)N1CCN(Cc2cccc(Oc3ccccc3)c2)CC1 ?
(A) 55

(Q) Would you kindly share the measured inhibition for NC(=O)c1cccc(-c2cccc(OC(=O)NC3CCCCC3)c2)c1 ?
(A) 7
